Where do the numbers come from? From patent US9464084B2.

target: rat P2X7 (Rattus norvegicus (Rat), UniProt Q64663); assay: Ca2+ flux (FLIPR) in 1321N1 cells expressing recombinant rat P2X7 channel; conditions: 250 μM BzATP;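 note: Calcium-4 dye fluorescence change read 180 s after agonist addition, following 30 min cell preincubation with test compound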
Sequence (Q64663 whole entry): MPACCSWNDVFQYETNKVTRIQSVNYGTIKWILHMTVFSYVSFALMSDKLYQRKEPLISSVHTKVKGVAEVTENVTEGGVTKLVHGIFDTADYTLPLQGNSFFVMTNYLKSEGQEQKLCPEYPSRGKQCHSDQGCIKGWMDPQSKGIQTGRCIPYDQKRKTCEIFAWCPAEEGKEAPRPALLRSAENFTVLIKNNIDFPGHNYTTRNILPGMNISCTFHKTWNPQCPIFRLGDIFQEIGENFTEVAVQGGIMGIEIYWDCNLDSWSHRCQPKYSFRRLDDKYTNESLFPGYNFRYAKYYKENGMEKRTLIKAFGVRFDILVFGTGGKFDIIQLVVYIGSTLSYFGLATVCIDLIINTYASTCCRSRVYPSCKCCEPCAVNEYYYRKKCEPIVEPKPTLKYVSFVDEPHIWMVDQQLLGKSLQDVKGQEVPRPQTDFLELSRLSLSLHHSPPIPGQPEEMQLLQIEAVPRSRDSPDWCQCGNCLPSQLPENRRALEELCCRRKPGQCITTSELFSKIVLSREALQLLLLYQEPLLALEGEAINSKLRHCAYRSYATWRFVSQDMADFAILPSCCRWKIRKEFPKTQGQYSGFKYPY
pIC50: −log10 of the molar value. Counter-ions that a name gives are not always drawn.
Quick rule: pIC50 of at least 6 means satisfied, below that means not satisfied.

Below, 5 molecules whose answers are already recorded.
{"Molecule": "CCOC(=O)C1c2ncn(-c3ccccc3)c2CCN1C(=O)c1cccc(Cl)c1Cl (stereo not shown) [Example 27]", "Label class": "not satisfied"}
{"Molecule": "O=C(c1cccc(C(F)(F)F)c1Cl)N1CCc2c(-c3ccccc3)n[nH]c2C1 [Example 99]", "Label class": "satisfied"}
{"Molecule": "O=C(C1c2ncn(-c3ccccn3)c2CCN1C(=O)c1cccc(C(F)(F)F)c1Cl)N1CCC1 (stereo not shown) [Example 35]", "Label class": "satisfied"}
{"Molecule": "C[C@@H]1c2ncn(-c3ccccn3)c2CCN1C(=O)c1cccc(Cl)c1Cl (single isomer, unassigned) [Example 192]", "Label class": "not satisfied"}
{"Molecule": "O=C(c1cccc(C(F)(F)F)c1Cl)N1CCc2c(-c3ccccn3)n[nH]c2C1 [Example 93, TFA salt]", "Label class": "satisfied"}

Please indicate if the recorded pIC50 for O=C(c1cccc(C(F)(F)F)c1F)N1CCc2c(ncn2-c2ccc(F)cn2)C1 [Example 314] meets or exceeds 6.
not satisfied

Please indicate if the recorded pIC50 for C[C@H]1c2nnn(-c3cccc(F)n3)c2CCN1C(=O)c1cccc(C(F)(F)F)c1Cl (single isomer, unassigned) [Example 147] meets or exceeds 6.
satisfied

Please indicate if the recorded pIC50 for O=C(c1cccc(Cl)c1Cl)N1CCc2c(ncn2-c2ccccn2)C1 [Example 4] meets or exceeds 6.
not satisfied

Please indicate if the recorded pIC50 for Cn1nc(-c2ccc(F)cc2)c2c1CN(C(=O)c1cccc(C(F)(F)F)c1Cl)CC2 [Example 106] meets or exceeds 6.
not satisfied

Please indicate if the recorded pIC50 for CC1Cc2c(nnn2-c2cc(F)ccn2)CN1C(=O)c1cccc(Cl)c1Cl (stereo not shown) [Example 173] meets or exceeds 6.
satisfied
